- Test system: DMS-114
- measurement description: NCI tumour cell line growth inhibition, 48 h
The source made the active and inactive calls. Cut-off read from the data, not from the text of the source: active = GI50 up to about 1.1 µM and inactive = higher.
Hi there, use one of these labels in your reply, thanks! 1 (yes) (active), 0 (no) (inactive)

Use the examples below as a reference point.
> print(dat)
                                   compound  class.assignment
1  COc1ccc2[nH]c3ccc4cc[n+](CCN5CCC(C6CCN(CC[n+]7ccc8ccc9[nH]c%10ccc(OC)cc%10c9c8c7)CC6)CC5)cc4c3c2c1           1 (yes)
2  COC(=O)[C@@H]1Cc2c([nH]c3ccccc23)[C@H](c2ccccc2)N1            0 (no)
3     [N-]=[N+]=CC(=O)c1ccccc1C#CCCc1ccccc1            0 (no)
4  CCCCC(C)C1CCC2(C)C=CC(=O)C(C)=C2C1O (centres undefined)            0 (no)
5  O=NN(CCCl)C(=O)NC1CCSc2ccccc21 (centres undefined)            0 (no)

Moving on to another compound below.
Fill in: this test's call for `Cc1nc(-n2nc(-c3ccccc3)cc2-c2ccccc2)sc1C(=O)/C=C/c1ccc(/C=C/C(=O)c2sc(-n3nc(-c4ccccc4)cc3-c3ccccc3)nc2C)cc1` is ___ 0 (no)
